Target: T1, human LAIR-1-ECD (human, UniProt Q6GTX8 22-165)
T1 construct: Recombinant, expressed in mammalian cells; also called extracellular region of human LAIR-1
T1 chain: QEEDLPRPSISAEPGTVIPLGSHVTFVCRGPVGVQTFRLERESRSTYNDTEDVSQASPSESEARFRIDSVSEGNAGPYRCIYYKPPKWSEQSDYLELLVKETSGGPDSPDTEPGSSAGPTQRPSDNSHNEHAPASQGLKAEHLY
Assay: SPR (Biacore); antibody captured by anti-Fc; LAIR-1-ECD injected;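 note: Anti-Fc immobilized on a CM5 chip, LAIR-1-ECD (human or cynomolgus) injected at 3.3-10 nM and 25 °C, kinetics fitted by simultaneous global fit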
# pKd per entry
pKd is a log-scale quantity: -log10 of the concentration expressed in molar.

Consider the following illustrative entries.
anti-LAIR-1 antibody 57D12 (antibody, V domains shown, Monoclonal antibody from immunized mice (hybridoma)) VH: QVQLQQSGAELARPGASVNLSCRASGYSFTSFGISWVKQRTGQGLEWIGEIYPRSDNTFYNEKFKGKATLTADKSSSTAYMELRSLTSEDSAVYFCARHFGSSSFDYWGQGTTLTVSS VL: ENVLTQSPPIMAASLGQKVTMTCSASSSVSSIYFHWYQQKSGTSPKPLIHRASNLASGVPARFSGSGSGTSYSLTISSVEAEDDATYYCQQWSGYPLTFGGGTKLEIK    9.57
anti-LAIR-1 antibody 62G10 (antibody, V domains shown, Monoclonal antibody from immunized mice (hybridoma)) VH: EVQLVETGGGLVQPKGSLKLSCATSGFTFNINAMNWVRQAPGKGLEWVARIRTKNNNFATYYADSVKDRFTISRDDSQSMLYLQMNNLKTEDTAMYYCVRGPYFDYWGQGTTLTVSS VL: DIQMTQSPASQSASLGESVTITCLASQTIGTWLAWYQQKPGKSPQLLIYAATSLADGVPSRFSGSGSGTKFSFKISNLQAEDFVTYYCQQLYSTPYTFGGGTKLEIK    9.49
anti-LAIR-1 antibody 61H4 (antibody, V domains shown, Monoclonal antibody from immunized mice (hybridoma)) VH: EVQLQQSGPEVLKPGASVKISCKASGYTFTDYYYMNWVKQSHGKSLEWIGYIYPNNGATSYNQKFKGKATLTVDKSSSTAYMELRSLTSEDSAVYYCARDGYSSNYYTMDYWGQGTSVTVSS VL: DVQMIQSPSSLSASLGDIVTMTCQASQGTSINLNWFQQKPGKAPKLLIYGASNLEDGVPSRFSGSRYGTDFTLTISSLEDEDMATYFCLQHTYLPYTFGGGTKLEIK    9.34

Form field pKd, entry anti-LAIR-1 antibody 47H1 (antibody, V domains shown, Monoclonal antibody from immunized mice (hybridoma)) VH: EVQLVETGGGLVQPKGSLKLSCAASGFTFNINAMNWVRQAPGKGLEWVARIRTKNNNYATFYADSVKDRFTISRDDSQSMLYLQMNNLKTDDTAMYYCVRDRAGFFAYWGQGTPVTVSA VL: DIQMTQSPASQSASLGESVTITCLASQTIGTWLGWYRQKPGKSPQLLIYAATSLADGVPSRFSGSGSGTKFSFKISSLQAEDFVIYYCQQLYSTPLTFGSGTKLEIK : 10.06

For anti-LAIR-1 antibody 108D10 (antibody, V domains shown, Monoclonal antibody from immunized mice (hybridoma)) VH: EVQLVETGGGLVQPKGSLKLSCAASGFTFNINAMNWVRQAPGKGLEWVARIRTKNNNYATYYADSVKDRFTISRDDSESMLYLQMNNLKTEDTAMYYCVRDRYGGAMAYWGQGTSVTVSS VL: DIQMTQSSSSFSVSLGDRVTITCKASEDIYNRLAWYQQKPGNVPRLLISSATSLETGVPSRFSGSGSGKDYTLSLTSLQSEDVATYYCQQYWTIPYTFGGGTKLEIK the binder record lists pKd as 9.40

So for anti-LAIR-1 antibody 47A1 (antibody, V domains shown, Monoclonal antibody from immunized mice (hybridoma)) VH: EVQLVESGGGLVQPKGSLKLSCAASGFTFNTYAIHWVRQAPGKGLEWVARIRSKSTNYATYYADSVKDRFTISRDDSQSMVFLQMNNLKTEDTAMYYCVRENWYYYALDYWGQGTSVTVSS VL: DIQMTQSPASLSASVGETVTITCRASGNIHNYLTWYQQKQGKSPQVLVYNAKTLEDGVPSRFSGSESGTQYSLKINSLQPEDFGSYYCQHFWSTPFTFGSGTKLEIK , the logged pKd turned out to be 9.04
